- TARGET: HIV-1 NL43 Env (HIV-1 strain NL43)
- ASSAY PROTOCOL: cell-based or functional assay
Below: a set of entries, each annotated with reported IC50 neutralization, 18 hour virus/Ab incubation.
PARAMETER: IC50 neutralization, 18 hour virus/Ab incubation (µg/mL)

>  <BINDER>
1460_G14 (PGG14) (antibody, human IgG1, kappa, V domains shown) VH: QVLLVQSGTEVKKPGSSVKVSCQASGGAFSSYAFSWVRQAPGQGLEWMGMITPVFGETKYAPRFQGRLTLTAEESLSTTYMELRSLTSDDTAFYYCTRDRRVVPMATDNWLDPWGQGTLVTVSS VL: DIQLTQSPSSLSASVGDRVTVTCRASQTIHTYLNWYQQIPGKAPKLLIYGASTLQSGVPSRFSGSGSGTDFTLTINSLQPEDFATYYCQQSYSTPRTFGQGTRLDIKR

>  <VALUE UNIT>
µg/mL

>  <RESULT>
0.05

$$$$
>  <BINDER>
1456_P20 (PG20) (antibody, human IgG1, kappa, V domains shown) VH: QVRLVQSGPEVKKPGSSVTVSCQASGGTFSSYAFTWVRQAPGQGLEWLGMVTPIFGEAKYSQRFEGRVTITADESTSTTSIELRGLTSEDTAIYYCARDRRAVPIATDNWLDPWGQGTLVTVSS VL: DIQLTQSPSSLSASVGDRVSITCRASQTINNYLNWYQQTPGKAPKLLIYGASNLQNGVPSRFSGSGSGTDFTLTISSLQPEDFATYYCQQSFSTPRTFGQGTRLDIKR

>  <VALUE UNIT>
µg/mL

>  <RESULT>
0.05

$$$$
